Hi! I'm sharing some IC50 results obtained with hJAK2 (Homo sapiens (Human), UniProt O60674).
Sequence (O60674 whole entry): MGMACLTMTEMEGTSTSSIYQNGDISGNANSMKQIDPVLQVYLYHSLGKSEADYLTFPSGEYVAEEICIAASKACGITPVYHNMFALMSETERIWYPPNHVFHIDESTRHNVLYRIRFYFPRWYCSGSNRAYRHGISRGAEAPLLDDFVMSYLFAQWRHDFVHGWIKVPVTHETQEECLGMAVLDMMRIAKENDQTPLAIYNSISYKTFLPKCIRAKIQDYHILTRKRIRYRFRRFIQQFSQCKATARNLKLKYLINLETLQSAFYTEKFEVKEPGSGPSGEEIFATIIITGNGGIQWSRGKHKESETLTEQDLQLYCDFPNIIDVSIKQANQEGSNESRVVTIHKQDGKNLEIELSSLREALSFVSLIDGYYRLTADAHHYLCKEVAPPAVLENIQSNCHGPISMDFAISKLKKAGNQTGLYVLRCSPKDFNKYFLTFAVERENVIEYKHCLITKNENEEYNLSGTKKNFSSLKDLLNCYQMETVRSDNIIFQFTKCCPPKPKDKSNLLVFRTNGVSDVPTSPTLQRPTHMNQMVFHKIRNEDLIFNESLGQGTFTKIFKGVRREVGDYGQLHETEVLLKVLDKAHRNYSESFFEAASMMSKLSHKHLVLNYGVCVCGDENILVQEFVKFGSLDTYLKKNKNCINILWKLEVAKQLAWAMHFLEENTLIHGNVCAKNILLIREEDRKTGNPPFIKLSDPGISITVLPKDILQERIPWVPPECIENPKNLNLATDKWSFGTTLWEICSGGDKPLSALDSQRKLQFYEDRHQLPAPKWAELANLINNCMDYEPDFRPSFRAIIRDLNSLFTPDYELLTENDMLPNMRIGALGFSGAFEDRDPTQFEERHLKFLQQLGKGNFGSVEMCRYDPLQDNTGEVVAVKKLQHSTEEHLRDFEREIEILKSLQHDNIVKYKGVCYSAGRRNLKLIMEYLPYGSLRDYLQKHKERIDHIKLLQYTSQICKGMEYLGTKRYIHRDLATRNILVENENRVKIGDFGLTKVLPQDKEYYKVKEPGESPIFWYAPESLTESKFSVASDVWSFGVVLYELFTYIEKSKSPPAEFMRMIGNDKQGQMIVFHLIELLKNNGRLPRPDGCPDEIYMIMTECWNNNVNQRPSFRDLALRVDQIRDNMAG

Some solved cases for reference:
N#Cc1cc(-c2ncnc(Nc3ccc(Cn4ccnc4)cc3)n2)ccc1OC1CCOCC1 [Example 106] : > 1000 nM
C[C@@H](N)C(=O)N1CC[C@H](Oc2ccc(-c3ncnc(Nc4ccc(N5CCN(C6COC6)CC5)cc4)n3)cc2C#N)[C@H](F)C1 [Example 433] : ≥ 1000 nM
N#Cc1cc(-c2ncnc(Nc3ccc(N4CCN(C5COC5)CC4)cc3)n2)ccc1O[C@H]1CCN(C(=O)[C@@H]2C[C@@H](F)C(=O)N2)C[C@H]1F [Example 405] : ≥ 1000 nM

# evaluate next
Sample CC(C)(O)Cn1cc(Nc2ncnc(-c3ccc(O[C@H]4CCN(C(=O)[C@@H](O)CO)C[C@H]4F)c(C#N)c3)n2)cn1 [Example 512] , system: hJAK2 (Homo sapiens (Human), UniProt O60674). Its IC50 is ≥ 1000 nM

###

target: IKKε (Homo sapiens (Human)); assay: IKKε TR-FRET enzymatic assay; format: biochemical; details: read-out: IKKe IC50
pIC50: −log10 of the molar value.
quantity: pIC50

Some solved cases for reference:
N#Cc1cc(-c2ncnc(Nc3ccc(N4CCN(C5COC5)CC4)cc3)n2)ccc1O[C@H]1CCN(C(=O)[C@H]2CCCN2)C[C@H]1F [Example 130] : 7.14
N#Cc1cc(-c2ncnc(Nc3ccc(N4CCN(C5COC5)CC4)cc3)n2)ccc1O[C@H]1CCN(C(=O)Cc2cnn[nH]2)C[C@H]1F [Example 319] : 8.15
N#Cc1cc(-c2ncnc(Nc3ccc(N4CCN(C5COC5)CC4)cc3)n2)ccc1OCC1CCOCC1 [Example 285] : 8.10

1: N#Cc1cc(-c2ncnc(Nc3ccc(N4CCN(C5COC5)CC4)c(F)c3)n2)ccc1OC1CCS(=O)(=O)CC1 [Example 268]
2: N#Cc1cc(-c2ncnc(Nc3ccc(N4CCN(C5COC5)CC4)cc3)n2)ccc1O[C@H]1CCN(C(=O)C2(O)CC2)C[C@H]1F [Example 140]
Inquiry: Rank 1 against 2 by their pIC50 values and give the higher one. Output the label that corresponds to your choice.
Reply text: 2
(2: 8.00, 1: 7.16)

###

target: TBK1 (Homo sapiens (Human), UniProt Q9UHD2); experiment: TBK1 TR-FRET enzymatic assay;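 further: phosphorylation of a biotinylated Ser/Thr peptide by purified full-length recombinant TBK1, read by TR-FRET after 240 min at 25 °C, IC50 is the geometric mean of at least four runs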
Sequence (Q9UHD2 whole entry): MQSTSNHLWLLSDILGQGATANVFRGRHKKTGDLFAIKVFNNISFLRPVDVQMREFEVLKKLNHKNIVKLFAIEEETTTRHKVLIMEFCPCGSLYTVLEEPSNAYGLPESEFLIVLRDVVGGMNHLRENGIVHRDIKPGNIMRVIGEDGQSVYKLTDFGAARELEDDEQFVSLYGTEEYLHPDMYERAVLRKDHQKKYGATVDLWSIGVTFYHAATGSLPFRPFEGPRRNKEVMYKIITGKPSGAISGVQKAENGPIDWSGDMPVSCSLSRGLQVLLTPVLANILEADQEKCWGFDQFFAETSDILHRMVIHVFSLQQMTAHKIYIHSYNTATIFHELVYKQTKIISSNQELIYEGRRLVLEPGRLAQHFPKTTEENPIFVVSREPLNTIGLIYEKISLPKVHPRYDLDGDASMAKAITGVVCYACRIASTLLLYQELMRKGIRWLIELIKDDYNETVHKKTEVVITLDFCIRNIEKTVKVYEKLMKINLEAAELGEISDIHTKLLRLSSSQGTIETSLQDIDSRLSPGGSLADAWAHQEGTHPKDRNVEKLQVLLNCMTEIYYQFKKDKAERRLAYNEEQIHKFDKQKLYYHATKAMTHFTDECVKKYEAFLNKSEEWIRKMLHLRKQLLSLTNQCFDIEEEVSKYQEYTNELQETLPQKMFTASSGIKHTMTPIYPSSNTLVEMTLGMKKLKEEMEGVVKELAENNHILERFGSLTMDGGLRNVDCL
quantity: IC50 (nM)

N#Cc1cc(-c2ncnc(Nc3ccc(N4CCN(C5COC5)CC4)cc3)n2)ccc1O[C@H]1CCN(C(=O)C2CC(O)C2)C[C@H]1F (stereo partly drawn) : 11
CCn1cc(Nc2ncnc(-c3ccc(O[C@H]4CCN(C(=O)[C@H](C)O)C[C@H]4F)c(C#N)c3)n2)c(C)n1 : 9
C[C@@H]1C[C@@H](Oc2ccc(-c3ncnc(Nc4ccc(N5CCN(C6COC6)CC5)cc4)n3)cc2C#N)CN1C(=O)CO : 77
N#Cc1cc(-c2ncnc(Nc3ccc(N4CCN(C5COC5)CC4)cc3)n2)ccc1O[C@H]1CCN(C(=O)[C@H]2CCCO2)C[C@H]1F : 12
N#Cc1cc(-c2ncnc(Nc3ccc(N4CCN(C5COC5)CC4)cc3)n2)ccc1OC1C2CC1CN(C(=O)CO)C2 (stereo not drawn) : 72

I: Cc1cc(Nc2ncnc(-c3ccc(O[C@H]4CCN(C(=O)[C@@H](O)CO)C[C@H]4F)c(C#N)c3)n2)cnc1N1CCN(C2COC2)CC1
II: N#Cc1cc(-c2ncnc(Nc3ccc(N4CCN(C5COC5)CC4)cc3)n2)ccc1OCC1CNC(=O)O1 (stereo not drawn)
III: N#Cc1cc(-c2ncnc(Nc3ccc(N4CCN(C5COC5)CC4)cc3)n2)ccc1O[C@H]1CCN(C(=O)N2CC[C@H](O)C2)C[C@H]1F
Inquiry: Hi! Can you put these in order of IC50, lowest number first? Put the labels in the requested order and list them out.
Reply text: I, II, III

###

target: IKKε (Homo sapiens (Human), UniProt Q14164); test: IKKε TR-FRET enzymatic assay; type: biochemical; details: TR-FRET, 2×Km ATP; geometric mean of minimum four determinations; read-out: IKKe IC50
Sequence (Q14164 whole entry): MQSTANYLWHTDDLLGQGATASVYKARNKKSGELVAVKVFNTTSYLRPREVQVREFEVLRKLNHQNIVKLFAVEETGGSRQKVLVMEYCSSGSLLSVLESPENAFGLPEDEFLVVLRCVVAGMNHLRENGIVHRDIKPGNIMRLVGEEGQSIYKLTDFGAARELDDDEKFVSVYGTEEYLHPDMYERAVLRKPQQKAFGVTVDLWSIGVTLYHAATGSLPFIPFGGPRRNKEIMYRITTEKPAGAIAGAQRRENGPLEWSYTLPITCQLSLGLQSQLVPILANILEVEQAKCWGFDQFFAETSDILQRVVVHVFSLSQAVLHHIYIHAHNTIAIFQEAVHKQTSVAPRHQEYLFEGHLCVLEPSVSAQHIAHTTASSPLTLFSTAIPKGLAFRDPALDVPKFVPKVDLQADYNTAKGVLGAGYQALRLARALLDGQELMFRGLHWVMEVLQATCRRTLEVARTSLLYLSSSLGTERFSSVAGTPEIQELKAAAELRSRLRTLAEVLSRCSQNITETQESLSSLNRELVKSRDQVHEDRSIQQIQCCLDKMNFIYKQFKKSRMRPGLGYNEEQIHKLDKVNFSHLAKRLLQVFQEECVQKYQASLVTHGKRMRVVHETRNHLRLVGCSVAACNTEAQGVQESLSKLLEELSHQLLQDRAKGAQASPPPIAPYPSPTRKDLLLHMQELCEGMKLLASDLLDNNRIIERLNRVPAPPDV
quantity: IC50 (nM)

N#Cc1cc(-c2ncnc(Nc3ccc(N4CCN(C5COC5)CC4)cc3)n2)ccc1OC1CNC(=O)C(F)(F)C1 (centres unmarked) : 33
N#Cc1cc(-c2ncnc(Nc3ccc(N4CCN(C5COC5)CC4)cc3)n2)ccc1O[C@H]1CCN(C(=O)c2coc(=O)[nH]2)C[C@H]1F : 3
CCn1cc(Nc2ncnc(-c3ccc(O[C@H]4CCN(C(=O)CO)C[C@H]4F)c(C#N)c3)n2)c(C)n1 : 6
Cc1cc(-c2ncnc(Nc3ccc(N4CCN(C5COC5)CC4)cc3)n2)cc(C#N)c1O[C@H]1CCN(C(=O)CO)C[C@H]1F : 28

A: C[C@H](O)C(=O)N1CC[C@H](Oc2ccc(-c3ncnc(Nc4cnn(C(F)F)c4)n3)cc2C#N)[C@H](F)C1
B: Cc1c(Nc2ncnc(-c3ccc(O[C@H]4CCN(C(=O)[C@@H](O)CO)C[C@H]4F)c(C#N)c3)n2)cnn1C
C: Cc1ncsc1Nc1ncnc(-c2ccc(O[C@H]3CCN(C(=O)CO)C[C@H]3F)c(C#N)c2)n1
D: N#Cc1cc(-c2ncnc(Nc3ccc(N4CCN(C5COC5)CC4)cc3)n2)ccc1O[C@H]1CCN(C(=O)C2CCNC2=O)C[C@H]1F (some centres unmarked)
Inquiry: Arrange these compounds by their IC50, starting with the largest number. Put the labels in the requested order and list them out.
Reply text: D, A, B, C
(D: 92 nM, A: 20 nM, B: 7 nM, C: 3 nM)

###

biological target: IKKε (Homo sapiens (Human), UniProt Q14164); test: IKKε TR-FRET enzymatic assay; type: biochemical; details: read-out: IKKe IC50
quantity: IC50 (nM)

C[C@@H]1C[C@H](Oc2ccc(-c3ncnc(Nc4ccc(N5CCN(C6COC6)CC5)cc4)n3)cc2C#N)CCN1C(=O)[C@@H](C)O [Example 186] : 312

P: COc1cc(Nc2ncnc(-c3ccc(OC4CCOCC4)c(C#N)c3)n2)ccc1N1CCN(CC(F)F)CC1 [Example 7]
Q: C[C@H](O)C(=O)N1CC(Oc2ccc(-c3ncnc(Nc4ccc(N5CCN(C6COC6)CC5)cc4)n3)cc2C#N)C(F)(F)C1 (stereo partly shown) [Example 198]
Inquiry: // pick min by IC50: P , Q Output the label that corresponds to your choice.
Reply text: P
(P: 3 nM, Q: 68 nM)

###

target: UniProt O60674
quantity: IC50 (nM)

Some solved cases for reference:
N#Cc1cc(-c2ncnc(Nc3ccc(N4CCN(C5COC5)CC4)cc3)n2)ccc1O[C@@H]1CCNC[C@H]1F [Example 236] : 723
C[C@H](O)C(=O)N1CC[C@H](Oc2ccc(-c3ncnc(Nc4ccc(N5CCO[C@@H](C(N)=O)C5)cc4)n3)cc2C#N)[C@H](F)C1 [Example 315] : 564

A: Cc1n[nH]c(C(=O)N2CC[C@H](Oc3ccc(-c4ncnc(Nc5ccc(N6CCN(C7COC7)CC6)cc5)n4)cc3C#N)C(F)(F)C2)n1 [Example 452]
B: COC1CN(c2ccc(-c3ncnc(Nc4ccc(N5CCN(C6COC6)CC5)cc4)n3)cc2C#N)C1 [Example 269]
Inquiry: // pick min by IC50: A , B Output the label that corresponds to your choice.
Reply text: A
(A: 23 nM, B: 219 nM)

I: N#Cc1cc(-c2ncnc(Nc3ccc(N4CCOCC4)cc3)n2)ccc1O[C@@H]1CCN(C(=O)CO)C1 [Example 103]
II: CC1(C)CN(C(=O)CO)CC[C@@H]1Oc1ccc(-c2ncnc(Nc3ccc(N4CCN(C5COC5)CC4)cc3)n2)cc1C#N (single isomer, unassigned) [Example 175]
Inquiry: // pick min by IC50: I , II Output the label that corresponds to your choice.
Reply text: I
(I: 260 nM, II: 397 nM)

1: N#Cc1cc(-c2ncnc(Nc3ccc(N4CCN(C5COC5)CC4)cc3)n2)cc(F)c1O[C@H]1CCN(C(=O)CO)C[C@H]1F [Example 329]
2: N#Cc1cc(-c2ncnc(Nc3ccc(N4CCN(C5COC5)CC4)cc3)n2)ccc1O[C@@H]1CCN(C(=O)CO)C1 [Example 30]
Inquiry: // pick min by IC50: 1 , 2 Output the label that corresponds to your choice.
Reply text: 2
(2: 387 nM, 1: 648 nM)

###

molecular target: IKKε (Homo sapiens (Human)); experiment: IKKε TR-FRET enzymatic assay; type: biochemical; conditions: TR-FRET, 2×Km ATP; geometric mean of minimum four determinations; read-out: IKKe IC50
quantity: IC50 (nM)

Some solved cases for reference:
Cn1ccc(C(=O)N2CCC(Oc3ccc(-c4ncnc(Nc5ccc(N6CCN(C7COC7)CC6)cc5)n4)cc3C#N)CC2)cc1=O : 89
NC(=O)c1cc(-c2ncnc(Nc3ccc(N4CCN(C5COC5)CC4)cc3)n2)ccc1OC1CNC(=O)C(F)(F)C1 (stereo not drawn) : 197

A: COc1cc(Nc2ncnc(-c3ccc(N4C[C@H](O)CCC4=O)c(C#N)c3)n2)ccc1N1CCN(C2COC2)CC1
B: Cc1cc(-c2ncnc(Nc3ccc(N4CCN(C5COC5)CC4)cc3)n2)cc(C#N)c1O[C@H]1CCN(C(=O)[C@H](C)O)C[C@H]1F
C: Cn1cc(C(O)C(=O)N2CC[C@H](Oc3ccc(-c4ncnc(Nc5ccc(N6CCN(C7COC7)CC6)cc5)n4)cc3C#N)[C@H](F)C2)cn1 (stereo partly drawn)
D: CCC(=O)Nc1ccc(-c2ncnc(Nc3ccc(N4CCN(C5COC5)CC4)cc3)n2)cc1C#N
Inquiry: Arrange these molecules by their IC50, starting with the largest number. Put the labels in the requested order and list them out.
Reply text: A, D, C, B

Each recorded value in this set is attributed to patent US10040781B2.
